Here, each record is paired with measured AC50 data.
molecular target: 5-hydroxytryptamine receptor 2A (Homo sapiens, UniProt P28223); type: functional, cell-based; also: assay procedure not described here
Sequence (P28223 whole entry): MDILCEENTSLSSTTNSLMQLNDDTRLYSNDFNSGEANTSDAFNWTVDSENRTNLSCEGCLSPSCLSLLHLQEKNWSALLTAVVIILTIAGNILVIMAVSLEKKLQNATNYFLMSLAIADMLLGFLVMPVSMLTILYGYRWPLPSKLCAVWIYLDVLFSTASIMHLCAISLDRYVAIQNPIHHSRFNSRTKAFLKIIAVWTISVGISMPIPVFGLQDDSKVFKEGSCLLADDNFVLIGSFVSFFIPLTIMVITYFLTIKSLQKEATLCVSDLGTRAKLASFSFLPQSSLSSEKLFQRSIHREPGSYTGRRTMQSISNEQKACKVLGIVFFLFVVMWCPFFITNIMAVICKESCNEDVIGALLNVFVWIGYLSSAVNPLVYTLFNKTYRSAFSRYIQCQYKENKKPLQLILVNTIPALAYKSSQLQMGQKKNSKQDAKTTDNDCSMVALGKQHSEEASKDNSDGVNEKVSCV

See these solved cases before continuing.
compound	AC50
CN1CCCN=C1COC(=O)C(O)(c1ccccc1)C1CCCCC1 (stereo not drawn) [OXYPHENCYCLIMINE]	> 10 µM
CCCC(CCC)C(=O)O[C@H]1C[C@H]2CC[C@@H](C1)[N+]2(C)C [ANISOTROPINE]	> 30 µM

// AC50 value for O=C(CCCCCCC(=O)Nc1ccccc1)NO [VORINOSTAT] : > 30 µM

====

Target or system B2 bradykinin receptor (Homo sapiens, UniProt P30411): recorded AC50 listed per item. Also: assay procedure not described here.

See these solved cases before continuing.
compound	endpoint_value
C[N+](C)(C)CCOC(N)=O	> 10 µM
CN(C)C(=O)OC1N=C(c2ccccc2)c2cc(Cl)ccc2N(C)C1=O (configuration not stated)	> 30 µM
CC(=O)OCC(=O)[C@@]12OC3(CCCC3)O[C@@H]1C[C@H]1[C@@H]3CCC4=CC(=O)C=C[C@]4(C)[C@@]3(F)[C@@H](O)C[C@@]12C [AMCINONIDE]	> 10 µM
N[C@@H](CSCC(=O)O)C(=O)O	> 30 µM
[H]/N=C(/N)c1ccc(NCc2nc3cc(C(=O)N(CCC(=O)O)c4ccccn4)ccc3n2C)cc1	> 30 µM
C1=Cc2cccc(OCC3CNCCO3)c2C1 (configuration not stated)	> 30 µM
CC(=O)N[C@H]1[C@H]([C@H](O)[C@H](O)CO)OC(C(=O)O)=C[C@@H]1N=C(N)N	> 30 µM
NC[C@H]1O[C@H](O[C@H]2[C@H](O)[C@@H](O[C@H]3O[C@H](CO)[C@@H](O)[C@H](N)[C@H]3O)[C@H](N)C[C@@H]2N)[C@H](O)[C@@H](O)[C@@H]1O	> 10 µM

# "COC(=O)[C@@H]1CC2=CC(=O)CC[C@]2(C)[C@@]23O[C@@H]2C[C@@]2(C)[C@@H](CC[C@@]24CCC(=O)O4)[C@H]13" with B2 bradykinin receptor (Homo sapiens, UniProt P30411): AC50 is > 30 µM

# "CCN(CC)CCOC(=O)c1ccc(N)cc1" with B2 bradykinin receptor (Homo sapiens, UniProt P30411): AC50 is > 30 µM

# "CN1CC[C@]23CCCC[C@H]2[C@H]1Cc1ccc(O)cc13" with B2 bradykinin receptor (Homo sapiens, UniProt P30411): AC50 is > 10 µM

# CC(C(O)c1ccc(O)cc1)N1CCC(Cc2ccccc2)CC1 (configuration not stated) with B2 bradykinin receptor (Homo sapiens, UniProt P30411): AC50 is > 30 µM

# "Cc1ccc(C(=O)c2cc(O)c(O)c([N+](=O)[O-])c2)cc1" with B2 bradykinin receptor (Homo sapiens, UniProt P30411): AC50 is > 10 µM

====

Target or system B2 bradykinin receptor (Homo sapiens): recorded AC50 listed per item. Also: assay procedure not described here.

See these solved cases before continuing.
compound	AC50
O=C(CCCCCCC(=O)Nc1ccccc1)NO	> 30 µM
COc1ccc2cccc(CCNC(C)=O)c2c1	> 30 µM
Cc1c(O)c(=O)ccn1C	> 30 µM
C#C[C@]1(O)CC[C@H]2[C@@H]3CCc4cc(O)ccc4[C@H]3CC[C@@]21C	> 30 µM
Cc1cccc(C)c1NC(=O)C1CCCCN1C (centres undefined) [MEPIVACAINE]	> 30 µM

// AC50 value for COc1c(N2CCNC(C)C2)c(F)cc2c(=O)c(C(=O)O)cn(C3CC3)c12 (centres undefined) : > 10 µM

// AC50 value for CCCCN1CCCCC1C(=O)Nc1c(C)cccc1C (centres undefined) : > 30 µM

// AC50 value for "Oc1ncnc2[nH]ncc12" : > 30 µM

// AC50 value for COc1ccccc1OCC(O)COC(N)=O (centres undefined) : > 10 µM

// AC50 value for "CNC(=O)c1cc(Oc2ccc(NC(=O)Nc3ccc(Cl)c(C(F)(F)F)c3)cc2)ccn1" : > 30 µM

// AC50 value for NS(=O)(=O)c1cc(-c2nnn[nH]2)c(NCc2cccs2)cc1Cl [AZOSEMIDE] : > 30 µM

// AC50 value for "O=C1CN=C(c2ccccc2)c2cc(Cl)ccc2N1CC(F)(F)F" : > 30 µM

// AC50 value for "O=C(O)CCn1c2c(c3ccccc31)C[C@H](NS(=O)(=O)c1ccc(F)cc1)CC2" : > 30 µM

// AC50 value for "CN[C@@H]1[C@H](O)[C@H](NC)[C@H]2O[C@@]3(O)C(=O)C[C@@H](C)O[C@H]3O[C@@H]2[C@H]1O" : > 10 µM

// AC50 value for CC(C)NCC(O)COc1ccc(COCCOC(C)C)cc1 (centres undefined) : > 30 µM

// AC50 value for "C#C[C@]1(O)CC[C@H]2[C@@H]3CCC4=CCCC[C@@H]4[C@H]3CC[C@@]21C" : > 30 µM

// AC50 value for "CC(C)(N)Cc1ccc(Cl)cc1" : > 30 µM

// AC50 value for "CN1CC(=O)N2[C@H](c3ccc4c(c3)OCO4)c3[nH]c4ccccc4c3C[C@@H]2C1=O" : > 30 µM

// AC50 value for COC(=O)C1=C(C)NC(C)=C(C(=O)OC(C)C)C1c1cccc2nonc12 (centres undefined) : > 30 µM

====

Target or system Histamine H3 receptor (Homo sapiens, UniProt Q9Y5N1): recorded AC50 listed per item. Also: assay procedure not described here.

See these solved cases before continuing.
compound	AC50
O=C(NC[C@H]1CN(c2ccc(N3CCOCC3=O)cc2)C(=O)O1)c1ccc(Cl)s1	> 30 µM
Nc1nc2ccc(OC(F)(F)F)cc2s1	> 30 µM
O=C1CN=C(c2ccccc2)c2c(sc3c2CCCC3)N1	> 30 µM
CCCCN(CCCC)CCCOC(=O)c1ccc(N)cc1	> 30 µM
Cc1cc2c(cc1CC(=O)c1sccc1S(=O)(=O)Nc1onc(C)c1Cl)OCO2	> 30 µM
NS(=O)(=O)c1cc2c(cc1Cl)NC(C1CC3C=CC1C3)NS2(=O)=O (stereo not drawn) [CYCLOTHIAZIDE]	> 30 µM
CC(C)C(=O)Nc1ccc([N+](=O)[O-])c(C(F)(F)F)c1 [FLUTAMIDE]	> 30 µM
C1N2CN3CN1CN(C2)C3	> 30 µM

Next up:
# "CO[C@@]12[C@H](COC(N)=O)C3=C(C(=O)C(C)=C(N)C3=O)N1C[C@@H]1N[C@@H]12" with Histamine H3 receptor (Homo sapiens, UniProt Q9Y5N1): AC50 is > 30 µM

====

Target or system Neuronal acetylcholine receptor subunit alpha-4 (Homo sapiens, UniProt P43681): recorded AC50 listed per item. Also: assay procedure not described here.

compound	AC50
CN[C@@H](C)[C@H](O)c1ccccc1	> 10 µM
COc1ccc(C(=O)NCc2ccc(OCCN(C)C)cc2)cc1OC [ITOPRIDE]	> 30 µM
C=C1C[C@@H]2[C@H](CC[C@]3(C)C(=O)CC[C@@H]23)[C@@]2(C)C=CC(=O)C=C12	> 10 µM
C[N+](C)(C)CCOC(N)=O	> 10 µM
CC(=O)c1ccc2c(c1)N(CCCN1CCN(CCO)CC1)c1ccccc1S2	> 30 µM
CN1C(=O)CC(C)(c2ccccc2)C1=O (centres undefined) [METHSUXIMIDE]	> 10 µM
CC(C)[N+](C)(CCC(C(N)=O)(c1ccccc1)c1ccccc1)C(C)C [ISOPROPAMIDE]	> 10 µM
NC1=NC(=O)C(c2ccccc2)O1 (centres undefined)	> 10 µM

# "COC(=O)[C@H]1[C@@H](OC(=O)c2ccccc2)C[C@@H]2CC[C@H]1N2C" with Neuronal acetylcholine receptor subunit alpha-4 (Homo sapiens, UniProt P43681): AC50 is > 30 µM

# NS(=O)(=O)c1cc2c(cc1Cl)NCNS2(=O)=O [HYDROCHLOROTHIAZIDE] with Neuronal acetylcholine receptor subunit alpha-4 (Homo sapiens, UniProt P43681): AC50 is > 10 µM

# "CN(C)CCCN1c2ccccc2CCc2ccc(Cl)cc21" with Neuronal acetylcholine receptor subunit alpha-4 (Homo sapiens, UniProt P43681): AC50 is > 10 µM

====

target: Voltage-gated inwardly rectifying potassium channel KCNH2 (Homo sapiens); assay type: functional; settings: read-out: AC50; also: assay procedure not described here
Sequence (Q12809 whole entry): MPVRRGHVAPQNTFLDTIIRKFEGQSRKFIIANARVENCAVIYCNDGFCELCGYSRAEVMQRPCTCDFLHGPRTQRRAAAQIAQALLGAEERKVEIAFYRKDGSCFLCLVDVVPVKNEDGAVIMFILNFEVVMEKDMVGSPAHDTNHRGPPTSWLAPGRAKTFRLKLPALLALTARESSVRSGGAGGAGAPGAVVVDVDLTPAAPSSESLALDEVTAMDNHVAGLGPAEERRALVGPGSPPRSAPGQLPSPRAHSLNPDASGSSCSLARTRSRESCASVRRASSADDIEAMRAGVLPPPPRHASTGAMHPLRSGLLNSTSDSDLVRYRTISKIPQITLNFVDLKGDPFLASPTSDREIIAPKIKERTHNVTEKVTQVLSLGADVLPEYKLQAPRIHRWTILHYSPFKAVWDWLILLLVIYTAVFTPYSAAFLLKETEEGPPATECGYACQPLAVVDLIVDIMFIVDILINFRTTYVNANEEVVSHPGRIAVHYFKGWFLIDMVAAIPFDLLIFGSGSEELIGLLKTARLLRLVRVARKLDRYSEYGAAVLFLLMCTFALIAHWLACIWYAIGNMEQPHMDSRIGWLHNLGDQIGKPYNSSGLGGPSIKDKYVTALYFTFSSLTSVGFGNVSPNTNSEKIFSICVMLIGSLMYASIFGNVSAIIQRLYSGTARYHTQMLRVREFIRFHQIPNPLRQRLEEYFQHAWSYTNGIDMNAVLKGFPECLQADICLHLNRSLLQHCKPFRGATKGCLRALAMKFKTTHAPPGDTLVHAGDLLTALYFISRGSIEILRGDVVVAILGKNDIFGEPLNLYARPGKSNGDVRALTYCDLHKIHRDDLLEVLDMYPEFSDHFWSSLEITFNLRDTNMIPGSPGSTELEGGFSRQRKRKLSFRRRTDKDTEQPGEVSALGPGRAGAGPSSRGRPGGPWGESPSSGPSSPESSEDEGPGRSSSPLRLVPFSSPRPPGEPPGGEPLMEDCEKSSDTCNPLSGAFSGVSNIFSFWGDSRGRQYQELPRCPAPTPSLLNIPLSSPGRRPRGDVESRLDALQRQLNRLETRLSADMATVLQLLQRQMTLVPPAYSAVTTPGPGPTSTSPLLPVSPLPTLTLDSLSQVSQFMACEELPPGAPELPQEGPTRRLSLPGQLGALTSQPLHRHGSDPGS
measured_endpoint: AC50 (µM)
Only the number, expressed in µM, is required.

compound	target_desc	endpoint_value
CC(C)C(=O)Nc1ccc([N+](=O)[O-])c(C(F)(F)F)c1 [FLUTAMIDE]	Voltage-gated inwardly rectifying potassium channel KCNH2 (Homo sapiens)	2.53
CC(=O)OCC(=O)[C@@]12OC3(CCCC3)O[C@@H]1C[C@H]1[C@@H]3CCC4=CC(=O)C=C[C@]4(C)[C@@]3(F)[C@@H](O)C[C@@]12C [AMCINONIDE]	Voltage-gated inwardly rectifying potassium channel KCNH2 (Homo sapiens)	17.3
CCOC(=O)N[C@@H]1CC[C@@H]2[C@@H](C1)C[C@H]1C(=O)O[C@H](C)[C@H]1[C@H]2/C=C/c1ccc(-c2cccc(F)c2)cn1	Voltage-gated inwardly rectifying potassium channel KCNH2 (Homo sapiens)	3.9

# Cc1cc2c(OCC(CNC(C)(C)C)OC(=O)c3ccccc3)cccc2[nH]1 (centres undefined) with Voltage-gated inwardly rectifying potassium channel KCNH2 (Homo sapiens): AC50 is 0.49
